system: OVISE (Ovarian Carcinoma); assay: Bliss excess, mean over the matrix (fraction); higher = more synergy;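 note: after 72 h of two-drug dosing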

compound	Bliss excess
CC(=O)c1c(C)c2cnc(Nc3ccc(N4CCNCC4)cn3)nc2n(C2CCCC2)c1=O [Palbociclib] + CC1(C)CCC(CN2CCN(c3ccc(C(=O)NS(=O)(=O)c4ccc(NCC5CCOCC5)c([N+](=O)[O-])c4)c(Oc4cnc5[nH]ccc5c4)c3)CC2)=C(c2ccc(Cl)cc2)C1 [Venetoclax] (first compound max 10 µM, 7x7, partner max 1 µM)	-0.0422
CN(CCO)CC[C@H](CSc1ccccc1)Nc1ccc(S(=O)(=O)NC(=O)c2ccc(N3CCC([C@@H](O)c4ccccc4-c4ccc(Cl)cc4)CC3)cc2)cc1S(=O)(=O)C(F)(F)F [AZD4320] + C=CCn1c(=O)c2cnc(Nc3ccc(N4CCN(C)CC4)cc3)nc2n1-c1cccc(C(C)(C)O)n1 [AZD1775] (first compound max 1 µM, partner max 1 µM)	0.0598
COc1cc2c(cc1OCCCCCOc1cc3c(cc1OC)C(=O)N1C=C(C)C[C@H]1C=N3)N=C[C@@H]1CC(C)=CN1C2=O [SG3199] + O=C(c1cc(Cc2n[nH]c(=O)c3ccccc23)ccc1F)N1CCN(C(=O)C2CC2)CC1 [Olaparib] (first compound max 0.001 µM, 7x7, partner max 10 µM)	-0.0431
Cc1c2c(nn1C)CSCc1cc(n(C)n1)CSc1cc(c3ccccc3c1)OCCCc1c(C(=O)O)n(C)c3c-2c(Cl)ccc13 [AZD5991] + Cn1cnc2c(F)c(Nc3ccc(Br)cc3Cl)c(C(=O)NOCCO)cc21 [Selumetinib] (first compound max 1 µM, 7x7, partner max 3 µM)	-0.0588
Cc1c2c(nn1C)CSCc1cc(n(C)n1)CSc1cc(c3ccccc3c1)OCCCc1c(C(=O)O)n(C)c3c-2c(Cl)ccc13 [AZD5991] + CC1(C)CCC(CN2CCN(c3ccc(C(=O)NS(=O)(=O)c4ccc(NCC5CCOCC5)c([N+](=O)[O-])c4)c(Oc4cnc5[nH]ccc5c4)c3)CC2)=C(c2ccc(Cl)cc2)C1 [Venetoclax] (first compound max 1 µM, 7x7, partner max 1 µM)	0.0031
COc1nnc2ccc(N3CCC(c4ccc(OCCN5CCN(C)C(=O)[C@H]5C)cc4)CC3)nn12 [AZD5153] + C[C@@H]1COCCN1C2=NC(=NC(=C2)C3(CC3)[S@](=N)(=O)C)C4=C5C=CNC5=NC=C4 [AZD6738] (first compound max 1 µM, 7x7, partner max 10 µM)	-0.0213
Cc1nc(Nc2ncc(C(=O)Nc3c(C)cccc3Cl)s2)cc(N2CCN(CCO)CC2)n1 [Dasatinib] + CC(=O)Nc1cccc(-n2c(=O)n(C3CC3)c(=O)c3c(Nc4ccc(I)cc4F)n(C)c(=O)c(C)c32)c1 [Trametinib] (first compound max 2 µM, 7x7, partner max 1 µM)	0.0504
CN(C)CCCOc1ccc(-c2ccc3ncc4c(c3c2)n(C2CCOCC2)c(=O)n4C)cn1 [AZD0156] + C[C@@H]1COCCN1C2=NC(=NC(=C2)C3(CC3)[S@](=N)(=O)C)C4=C5C=CNC5=NC=C4 [AZD6738] (first compound max 1 µM, 7x7, partner max 10 µM)	0.0317
CC1(C)CCC(CN2CCN(c3ccc(C(=O)NS(=O)(=O)c4ccc(NCC5CCOCC5)c([N+](=O)[O-])c4)c(Oc4cnc5[nH]ccc5c4)c3)CC2)=C(c2ccc(Cl)cc2)C1 [Venetoclax] + C=CCn1c(=O)c2cnc(Nc3ccc(N4CCN(C)CC4)cc3)nc2n1-c1cccc(C(C)(C)O)n1 [AZD1775] (first compound max 1 µM, partner max 1 µM)	-0.0676
CN(CCO)CC[C@H](CSc1ccccc1)Nc1ccc(S(=O)(=O)NC(=O)c2ccc(N3CCC([C@@H](O)c4ccccc4-c4ccc(Cl)cc4)CC3)cc2)cc1S(=O)(=O)C(F)(F)F [AZD4320] + Cc1cc2ncnn2cc1Nc1ncc2c(n1)n(C1CCOCC1)c(=O)n2C [AZD7648] (first compound max 1 µM, 7x7, partner max 10 µM)	-0.0033
CCc1c2c(nc3ccc(O)cc13)-c1cc3c(c(=O)n1C2)COC(=O)[C@]3(O)CC [SN-38] + O=C(c1cc(Cc2n[nH]c(=O)c3ccccc23)ccc1F)N1CCN(C(=O)C2CC2)CC1 [Olaparib] (first compound max 0.3 µM, 7x7, partner max 10 µM)	0.0082
Cn1cnc2c(F)c(Nc3ccc(Br)cc3Cl)c(C(=O)NOCCO)cc21 [Selumetinib] + C=CCn1c(=O)c2cnc(Nc3ccc(N4CCN(C)CC4)cc3)nc2n1-c1cccc(C(C)(C)O)n1 [AZD1775] (first compound max 10 µM, partner max 1 µM)	-0.0436
COc1nnc2ccc(N3CCC(c4ccc(OCCN5CCN(C)C(=O)[C@H]5C)cc4)CC3)nn12 [AZD5153] + C=CCn1c(=O)c2cnc(Nc3ccc(N4CCN(C)CC4)cc3)nc2n1-c1cccc(C(C)(C)O)n1 [AZD1775] (first compound max 1 µM, partner max 1 µM)	-0.0081
